- measurement.target: Melanin-concentrating hormone receptor 1 (Rattus norvegicus, UniProt P97639)
- Sequence (P97639 whole entry): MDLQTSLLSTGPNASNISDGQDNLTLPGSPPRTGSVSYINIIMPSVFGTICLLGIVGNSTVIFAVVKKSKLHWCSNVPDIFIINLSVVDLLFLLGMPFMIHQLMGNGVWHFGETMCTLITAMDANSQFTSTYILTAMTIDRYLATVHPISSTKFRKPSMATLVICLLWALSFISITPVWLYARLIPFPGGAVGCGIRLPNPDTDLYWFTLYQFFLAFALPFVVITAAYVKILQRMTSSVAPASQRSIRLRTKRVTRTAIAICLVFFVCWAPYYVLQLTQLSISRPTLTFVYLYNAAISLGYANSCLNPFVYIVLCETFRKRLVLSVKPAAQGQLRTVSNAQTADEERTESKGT
Some compounds, each annotated with its measured Ki.
Express your answer in nM, writing the number without its unit.

Take a look at these entries with their results.
O=c1c2cc(-c3ccc(Cl)cc3)cn2ncn1-c1ccc(N2CCC(N3CC(O)C3)C2)nc1 (centres undefined) : 1.4
O=c1c2cc(-c3ccc(Cl)cc3)cn2ncn1-c1ccc(N2CC(O)C2)nc1 : 14
COc1ccc(-n2cnn3cc(-c4ccc(Cl)cc4)nc3c2=O)cc1OC : 87
CCS(=O)(=O)C[C@@H](O)COc1ccc(-n2cnn3cc(-c4ncc(Cl)cn4)cc3c2=O)cc1OC : 23
CCS(=O)(=O)C[C@@H](O)COc1ccc(-n2cnn3cc(-c4ccc(Cl)cc4)cc3c2=O)cc1OC : 1.5

Here is another compound to look at.
Entry "COc1cc(-n2cnn3cc(-c4ccc(Cl)cn4)cc3c2=O)ccc1N1CC[C@@H](O)C1" — recorded Ki = 9.6
